Attribution: patent US10392620B2

test system: Zymoseptoria tritici (SEPTTR-184); experiment: Efficacy of target gene fragments (MgCytB dsRNA tiles) on wheat plants, SEPTTR-184; type: in vivo; conditions: 3DC (curative); sum over 200, 50, 12.5, 3.125 ppm
Experimental endpoint: Sum of Disease Control SEPTTR-184 3DC (%)

- MgCytB-T1: 267 bp dsRNA of Zymoseptoria CytB region 1, location 364-630 (SEQ ID NO:4) (nucleic acid, listed as Zymoseptoria tritici, complementary strand of dsRNA) GTTCTGATGATGGCAACCGCATTCTTAGGGTATGTATTACCTTATGGTCAAATGTCTTTATGAGGAGCAACAGTTATAACTAACTTATTGAGTGCAATACCTTGAGTTGGACAAGACATAGTTGAATTCGTATGAGGTGGATTTTCTGTTAACAATGCAACATTGAACAGATTCTTTGCTCTACATTTCGTTTTACCGTTTGTGTTAGCTGCATTAGTTTTAATGCATCTAATAGCTTTACACGATACAGCGGGTTCAGGAAATCCT: 318
- MgCytB-T7: 221 bp dsRNA of Zymoseptoria CytB region T7, location 947-1167 (SEQ ID NO:10) (nucleic acid, listed as Zymoseptoria tritici, complementary strand of dsRNA) GATTACAGTTTAGACCTTTAAGCAAGATCACATTTTACATATTTGTTGCTAACTTCTTAGTATTAATGCAATTAGGTGCTAATCACGTTGAGTCACCATTTATAGAATTTGGGCAAATTAGTACAGTACTGTACTTTTCACATTTCTTAATCATAGTGCCTCTAGTAAGCTTAATCGAGAATACTTTAGTGGATATGCACTTAAACAACACAATAACGTAA: 297
- MgCytB-T2: 203 bp dsRNA of Zymoseptoria CytB region 2, location 603-805 (SEQ ID NO:5) (nucleic acid, listed as Zymoseptoria tritici, complementary strand of dsRNA) ACACGATACAGCGGGTTCAGGAAATCCTTTAGGTGTATCAGGTAACTACGATAGATTACCATTCGCCCCTTACTTTATATTCAAAGATTTAATAACAATATTTTTATTCATTATAGTGTTATCAATATTTATTTTCTTTATGCCTAACGTTTTAGGTGACAGCGAGAATTATGTTATGGCTAACCCTATGCAAACTCCACCTG: 329
- MgCytB-T6: 258 bp dsRNA of Zymoseptoria CytB region T6, location 775-1032 (SEQ ID NO:9) (nucleic acid, listed as Zymoseptoria tritici, complementary strand of dsRNA) GTTATGGCTAACCCTATGCAAACTCCACCTGCTATAGTGCCTGAATGATATTTATTACCTTTCTACGCTATACTAAGATCAATACCTAACAAACTATTAGGTGTGATCGCAATGTTTTCTGCTATATTGATTATAATGATAATGCCAATTACCGATTTAGGTAGAAGTAGAGGATTACAGTTTAGACCTTTAAGCAAGATCACATTTTACATATTTGTTGCTAACTTCTTAGTATTAATGCAATTAGGTGCTAATCAC: 239
